B1: Gamma-crystallin C, residues 91 to 170; numbered along this chain, P07315 (parent)
chain: RLYEREDHKGLMMELSEDCPSIQDRFHLSEIRSLHVLEGCWVLYELPNYRGRQYLLRPQEYRRCQDWGAMDAKAGSLRRV

Variants of: B1
PROTOCOL SUMMARY: abundance fitness (aPCA) (normalised: wild type 0, dead -1); higher = more abundant; growth selection in yeast, the domain comes from the species named
EXPERIMENTAL CONDITIONS: Homo sapiens
EXPERIMENTAL READOUT: abundance fitness
Please give the numeric answer without any surrounding text.

Example variants with recorded abundance fitness:
MUTATION LIST: R32L
EXPERIMENTAL READOUT: abundance fitness
QUANTITATIVE READOUT: -0.359
//
MUTATION LIST: M70F
EXPERIMENTAL READOUT: abundance fitness
QUANTITATIVE READOUT: -0.226
//
MUTATION LIST: Q53E
EXPERIMENTAL READOUT: abundance fitness
QUANTITATIVE READOUT: 0.087

Q) Name the reported abundance fitness value associated with the variant `R50N`
A) -0.242

Q) Name the reported abundance fitness value associated with the variant `R63E`
A) -0.234
